System: U87 glioblastoma cells
Experimental details: U87 cell viability (MTT) assay under normoxia and hypoxia
Format: cell-based, human
Particulars: Homo sapiens, U-87 MG, 72 h, hypoxia (0.1% O2), 72 hours, low glucose media; read-out: Inhibition under Hypoxia (IC50, U87 cell viability)

Compound	IC50
O=CC[C@@H](O)[C@H](O)[C@H](O)CO [2-DG, 2-Deoxy-D-glucose, reference compound]	≥ 1800 µM
OC[C@H]1OC(O)C(F)(F)[C@@H](O)[C@@H]1O (some centres unmarked)	1500 to 1800 µM

###

Tested on: U87 glioblastoma cells
Experimental details: U87 cell viability (MTT) assay under normoxia and hypoxia
Format: cell-based, human
Particulars: Homo sapiens, U-87 MG, 72 h, normoxic conditions (21% O2), 72 h; read-out: IC50 (cytotoxicity in U87 cells)
pIC50: −log10 of the molar value.
Metric: pIC50

Compound	System tested	Metric	Observed measurement
OC[C@H]1OC(O)C(F)(F)[C@@H](O)[C@@H]1O (stereo partly shown)	U87 glioblastoma cells	pIC50	2.54

Ref: patent US9149489B2
